Test: reduced growth of AddAB-expressing E. coli cells – absorbance, AddAB inhibitor project, primary screen (AID 435030);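 note: 0% = vehicle wells of infected cells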
Settings: E. coli expressing H. pylori AddAB, at 11.9 µM, hits give high values
The whole screen tested about 330,000 compounds, of which about 940 (0.28%) were called active. Shown is part of a subset that was picked to be rich in actives.
As shown below, each of these molecules has a reported inhibition value.

Previously resolved entries follow.
>>> observed_value("COc1ccc(CCNC(=O)/C(C#N)=C2\\N=C(NC(=O)c3cccs3)c3ccccc32)cc1")
"3.86% (inactive)"
>>> observed_value("CC(=O)NN1C(=O)c2ccccc2NC1c1ccccc1 (stereo unspecified)")
"0.33% (inactive)"
>>> observed_value("COc1ccc(C2/C=C\\CN(CC(C)C)CC(=O)N2Cc2ccc(F)cc2)cc1 (stereo unspecified)")
"2.22% (inactive)"

Qu. Which value of inhibition has been reported for CC(=O)Nc1ccc(CN2CCN(Cc3ccc(F)c(F)c3)C(CCO)C2)cc1 (stereo unspecified) in the records?
Ans. 2.22% (inactive)

Qu. What about this molecule? `Cc1nn(C)c(C)c1Sc1ccccc1N`
Ans. -0.51% (inactive)

Qu. What about this molecule? CCC(C)[C@H]1COCCS(=O)(=O)N1Cc1ccc(C)cc1 (stereo partly specified)
Ans. 2.11% (inactive)

====

Assay: reduced growth of AddAB-expressing E. coli cells – absorbance, AddAB inhibitor project, primary screen (AID 435030);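 note: 0% = vehicle wells of infected cells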
Conditions: E. coli expressing H. pylori AddAB, at 11.9 µM, hits give high values
In all, about 330,000 compounds went through this assay and about 940 (0.28%) were called active. What follows is part of a selection rich in actives, with near analogues and random picks from the rest.
As shown below, each of these compounds has a reported inhibition value.
Numbers only here, please. The scale is %.

Previously resolved entries follow.
>>> observed_value("CN(NC(=O)C1CC(=O)N(c2ccccc2)C1)C1=NS(=O)(=O)c2ccccc21 (stereo unspecified)")
1
>>> observed_value("O=C(NC(Cc1ccccc1)C(=O)O)/C(=C\\c1ccccc1)NC(=O)c1ccco1 (stereo unspecified)")
0.08
>>> observed_value("CC(C)(C)NC(=O)COC(=O)c1cc(Cl)ccc1[N+](=O)[O-]")
57.9
>>> observed_value("COc1ccc(CNC(=O)CN(Cc2ccc(Cl)cc2)S(C)(=O)=O)cc1")
3.57
>>> observed_value("Cc1cc(C)c(S(=O)(=O)N2CCCC2CNC(=O)c2ccc3c(c2)OCO3)c(C)c1 (stereo unspecified)")
2.32
>>> observed_value("Cc1ncoc1C(=O)NCCC(c1ccccc1)c1ccccc1")
0.08

Qu. Which value of inhibition has been reported for Cc1cc(=O)n2nc(N3CCCC(C(=O)NCCC4=CCCCC4)C3)sc2n1 (stereo unspecified) in the records?
Ans. 0.49

Qu. What about this compound? `Cc1ccc(Sc2ccncc2S(N)(=O)=O)cc1`
Ans. 4.14

Qu. What about this compound? `CCN1/C(=C\c2ccc3ccccc3[n+]2CC)Sc2cc(C)ccc21`
Ans. 13.3

Qu. What about this compound? `O=C(CCCN1C(=O)CCC1=O)Nc1ccc(Cl)c(C(F)(F)F)c1`
Ans. 2.75

Qu. What about this compound? `NC(=O)COC(=O)c1sc2cc(F)ccc2c1Cl`
Ans. 1.69

Qu. What about this compound? `C=C1CCN([C@H](C(=O)NCc2cc(OC)c(OC)c(OC)c2)C(C)C)S(=O)(=O)c2ccccc21`
Ans. 0.6

Qu. What about this compound? Cc1ccc(NC(=O)C(C)Sc2nnc(C3CC3)n2C2CC2)cc1S(=O)(=O)N1CCOCC1 (stereo unspecified)
Ans. -0.26

Qu. What about this compound? `Cn1nnc2cc(C(=O)NCCC3=CCCCC3)ccc21`
Ans. 0

Qu. What about this compound? `CCCC(=O)OCC(=O)Nc1cc(Cl)ccc1[N+](=O)[O-]`
Ans. 0.77

Qu. What about this compound? `Cc1ccc(S(=O)(=O)N2[C@@H](c3cccc4ccccc34)C(C(=O)O)=C[C@H]2C(C)(C)C)cc1`
Ans. -0.17

Qu. What about this compound? `Brc1ccc(CN2CC[C@H]3C=CCc4cccc(c43)C2)cc1`
Ans. 4.02

Qu. What about this compound? `CS(=O)(=O)N(CC(=O)Nc1ccc(Cl)c(Cl)c1)C1CCCCC1`
Ans. -0.7

Qu. What about this compound? `CCn1c(/C=C/Nc2ccccc2)[n+](CC)c2ccc(C(=O)OCC(F)(F)F)cc21`
Ans. -1.7

Qu. What about this compound? Cc1ccc(S(=O)(=O)c2ccc(Cl)cc2)cc1S(=O)(=O)NC(C(=O)O)C(C)C (stereo unspecified)
Ans. 3.7

Qu. What about this compound? `O=C(OCC(=O)N1CCN(C(=O)c2ccco2)CC1)c1c(Cl)cccc1Cl`
Ans. 1.58

====

Assay: reduced growth of AddAB-expressing E. coli cells – absorbance, AddAB inhibitor project, primary screen (AID 435030);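 note: 0% = vehicle wells of infected cells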
Conditions: E. coli expressing H. pylori AddAB, at 11.9 µM, hits give high values
Among all 330,000 compounds or so, about 940 (0.28%) were called active. The entries come from a sample that favours actives as a whole.
property label: inhibition (%)
Numbers only here, please. The scale is %.

Qu. Which value of inhibition has been reported for `COc1cc(NS(=O)(=O)c2ccc(NC(=O)c3ccc([N+](=O)[O-])cc3)cc2)ncn1` in the records?
Ans. 0.95

Qu. What about this molecule? CCOc1ccc(OCC)c(NC(=O)C(NS(=O)(=O)c2ccc3c(c2)oc(=O)n3C)C(C)C)c1 (stereo unspecified)
Ans. 0.33

Qu. What about this molecule? `O=C(NC(=O)N1CCSCC1)c1c(Cl)cccc1Cl`
Ans. 1.83

====

Experiment: reduced growth of AddAB-expressing E. coli cells – absorbance, AddAB inhibitor project, primary screen (AID 435030);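 note: 0% = vehicle wells of infected cells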
Conditions: E. coli expressing H. pylori AddAB, at 11.9 µM, hits give high values
In all, about 330,000 compounds went through this assay and about 940 (0.28%) were called active. For the sample, actives were picked, then their nearest neighbours and some compounds at random.
As shown below, each of these compounds has a reported inhibition value.
Numbers only here, please. The scale is %.

Qu. Which value of inhibition has been reported for `O=C(Oc1ccc([N+](=O)[O-])cc1)c1ccc2ccccc2n1` in the records?
Ans. 0.94

Qu. What about this compound? `CCn1c(=O)c([N+](=O)[O-])c(NCc2ccc3c(c2)OCO3)c2ccccc21`
Ans. -0.08

Qu. What about this compound? `CCn1c(/C=C/c2ccc([N+](=O)[O-])o2)nc2ccccc2c1=O`
Ans. 17.8

Qu. What about this compound? `CCOCCCn1c(NN)nc2ccccc2c1=O`
Ans. 1.87

Qu. What about this compound? `O=[N+]([O-])c1ccc(N=Cc2c(O)ccc3ccccc23)cc1`
Ans. 39.5

Qu. What about this compound? `Cc1nc2ccccc2nc(=O)c1NNc1ccc([N+](=O)[O-])cc1`
Ans. 0.52

====

Test: reduced growth of AddAB-expressing E. coli cells – absorbance, AddAB inhibitor project, primary screen (AID 435030);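 note: 0% = vehicle wells of infected cells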
Details: E. coli expressing H. pylori AddAB, at 11.9 µM, hits give high values
About 940 (0.28%) of roughly 330,000 compounds were called active. Only a selection was taken, and actives are over-represented in it overall.
As shown below, each of these compounds has a reported inhibition value.
Numbers only here, please. The scale is %.

>>> observed_value("Cc1cn(C2C=CC(CO)O2)c(=O)[nH]c1=O (centres undefined)")
20.5
>>> observed_value("O=C(/C=C/c1ccc([N+](=O)[O-])o1)NNC(=O)c1ccc(F)cc1")
97.8
>>> observed_value("Cc1ccc(OCC(=O)c2cc(C)n(Cc3ccco3)c2C)c([N+](=O)[O-])n1")
3.36

Qu. Which value of inhibition has been reported for `Cc1cccc(NC(=O)c2ccc([N+](=O)[O-])o2)c1` in the records?
Ans. 38.2

Qu. What about this compound? `Cc1cc(C)c2c(c1)cc(C)c1nnc(SCC(=O)Nc3cc(C)on3)n12`
Ans. 1.96

Qu. What about this compound? `O=C(Cn1c(=O)sc2ccccc21)Nc1nc2c(s1)CCCC2`
Ans. 12.5

Qu. What about this compound? `C=CCNC(=O)c1csc(-c2ccccc2)n1`
Ans. 0.48

Qu. What about this compound? `Cc1ccc(SCc2c(C(=O)N/N=C/c3cccnc3)nnn2-c2nonc2N)cc1`
Ans. 3.86

Qu. What about this compound? `O=C(c1nnc(-c2ccc(Cl)cc2)o1)C1CCCC1`
Ans. 0.77

Qu. What about this compound? CSCCC(NC(=O)c1cc([N+](=O)[O-])cc([N+](=O)[O-])c1)c1nc2ccccc2[nH]1 (centres undefined)
Ans. 2.67

Qu. What about this compound? `O=C(NNC(=O)C1CCCC1)c1ccc(F)cc1`
Ans. -2.96

Qu. What about this compound? `Cc1ccccc1OCC(=O)NNC(=O)c1cc(S(=O)(=O)N(C)C)ccc1N1CCCC1`
Ans. -1.04

Qu. What about this compound? COC(=O)C1(C)NC(c2ccc(F)cc2)C2C(=O)N(c3ccccc3)C(=O)C21 (centres undefined)
Ans. 1.16
